viability, T/C values by entry
- System: 653999-131-R-J2-PDC complex spheroid viability
- Measurement notes: Anticancer human tumor 653999-131-R-J2-PDC patient-derived lung adenocarcinoma cell line growth inhibition
- Test settings: second compound 10 µM; first compound 0.316 µM; active compounds read low
- From the text: Multicellular complex tumor spheroid response to LSD1 Inhibitor Iadademstat in combination with a variety of drugs and investigational agents in selected tumor cell lines The current study was undertaken to assess response to LSD1 inhibitors in combination with standard-of-care drugs and investigational agents in solid tumor complex spheroid models as well as in the K-562 leukemia. […] Compounds. […] If the clinical Cmax for an agent had not been determined, the highest concentration tested was 10 microM. […]
Assay metric: viability, T/C (%)

INSERT INTO results (compound, measurement_target, assay_result) VALUES
  ('Nc1ncn(C2CC(O)C(CO)O2)c(=O)n1 (centres undefined) + NC1CC1c1ccc(-c2cccc(O)c2)cc1', '653999-131-R-J2-PDC complex spheroid viability', 84.8),
  ('O=C(c1cc(Cc2n[nH]c(=O)c3ccccc23)ccc1F)N1CCN(C(=O)C2CC2)CC1 + NC1CCC(NC2CC2c2ccccc2)CC1', '653999-131-R-J2-PDC complex spheroid viability', 102),
  ('COc1cc(Nc2ncc3c(n2)-c2ccc(Cl)cc2C(c2c(F)cccc2OC)=NC3)ccc1C(=O)O + NC1CCC(NC2CC2c2ccccc2)CC1', '653999-131-R-J2-PDC complex spheroid viability', 60.9),
  ('CC1COCCN1c1cc(-c2ccnn2C)c2ccnc(-c3ccn[nH]3)c2n1 (centres undefined) + NC1CC1c1ccc(-c2cccc(O)c2)cc1', '653999-131-R-J2-PDC complex spheroid viability', 29.7);

###

- Tested on: 653999-131-R-J2-PDC complex spheroid viability
- Measurement notes: Anticancer human tumor 653999-131-R-J2-PDC cell line growth inhibition;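 further: spheroids exposed to agents for seven days before readout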
- Test settings: second compound 3.16 µM; first compound 1 µM; active compounds read low
# viability, T/C values compiled below
Assay metric: viability, T/C (%)

INSERT INTO measurements (compound, measurement_target, assay_result) VALUES
  ('Nc1ncn(C2CC(O)C(CO)O2)c(=O)n1 (centres undefined) + NC1CCC(NC2CC2c2ccccc2)CC1', '653999-131-R-J2-PDC complex spheroid viability', 78),
  ('CC1(C)CCC(CN2CCN(c3ccc(C(=O)NS(=O)(=O)c4ccc(NCC5CCOCC5)c([N+](=O)[O-])c4)c(Oc4cnc5[nH]ccc5c4)c3)CC2)=C(c2ccc(Cl)cc2)C1 + NC1CCC(NC2CC2c2ccccc2)CC1', '653999-131-R-J2-PDC complex spheroid viability', 94.2),
  ('COc1cc(Nc2ncc3c(n2)-c2ccc(Cl)cc2C(c2c(F)cccc2OC)=NC3)ccc1C(=O)O + NC1CC1c1ccc(-c2cccc(O)c2)cc1', '653999-131-R-J2-PDC complex spheroid viability', 49.6),
  ('O=C(c1cc(Cc2n[nH]c(=O)c3ccccc23)ccc1F)N1CCN(C(=O)C2CC2)CC1 + NC1CCC(NC2CC2c2ccccc2)CC1', '653999-131-R-J2-PDC complex spheroid viability', 84.7);

###

Listed here are compounds together with their documented viability, T/C.
- System: 653999-131-R-J2-PDC complex spheroid viability
- Measurement notes: Anticancer human tumor 653999-131-R-J2-PDC cell line growth inhibition;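 further: spheroids exposed to agents for seven days before readout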
- Test settings: second compound 3.16 µM; first compound 1 µM; active compounds read low
- Source text: Multicellular complex tumor spheroid response to LSD1 Inhibitor Iadademstat in combination with a variety of drugs and investigational agents in selected tumor cell lines The current study was undertaken to assess response to LSD1 inhibitors in combination with standard-of-care drugs and investigational agents in solid tumor complex spheroid models as well as in the K-562 leukemia. […] Compounds. […] If the clinical Cmax for an agent had not been determined, the highest concentration tested was 10 microM. […]
Assay metric: viability, T/C

INSERT INTO assay_data (compound, assay_metric, assay_result) VALUES
  ('CC1COCCN1c1cc(-c2ccnn2C)c2ccnc(-c3ccn[nH]3)c2n1 (centres undefined) + NC1CC1c1ccc(-c2cccc(O)c2)cc1', 'viability, T/C', '39.7%'),
  ('CC1COCCN1c1cc(C2(S(C)(=N)=O)CC2)nc(-c2ccnc3[nH]ccc23)n1 (centres undefined) + NC1CC1c1ccc(-c2cccc(O)c2)cc1', 'viability, T/C', '73.2%'),
  ('CC1COCCN1c1cc(-c2ccnn2C)c2ccnc(-c3ccn[nH]3)c2n1 (centres undefined) + NC1CCC(NC2CC2c2ccccc2)CC1', 'viability, T/C', '27.8%'),
  ('COc1cc(Nc2ncc3c(n2)-c2ccc(Cl)cc2C(c2c(F)cccc2OC)=NC3)ccc1C(=O)O + NC1CCC(NC2CC2c2ccccc2)CC1', 'viability, T/C', '72%');
